Test: collision cross section in nitrogen (drift tube, single-field); higher = larger gas-phase ion size;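 further: chemical standards at 10 µM analysed by drift tube IMS-QTOF MS in about 3.95 torr nitrogen, mean of duplicate injections differing ≤1%, mass error below 10 ppm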
Settings: ion type: [M+H]; ion source: ESI; ion mode: Positive
Structures can show the parent of a compound that is named as a salt.
QUANTITY_NAME: collision cross section in nitrogen (Å²)

MOLECULE	ENDPOINT_UNIT	collision cross section in nitrogen
CN(C)CCC=C1c2ccccc2CCc2ccccc21 [Amitriptyline hydrochloride]	Å²	167.5
CCOC(=O)[C@H](C)Oc1ccc(Oc2nc3ccc(Cl)cc3o2)cc1 [Fenoxaprop-(2S)-ethyl]	Å²	189.8
CCCCCCCCC=CCCCCCCCC1=NCCN1CCO [2-(8-Heptadecenyl)-2-imidazoline-1-ethanol]	Å²	199.8
O=C(CCCN1CCC(O)(c2ccc(Cl)cc2)CC1)c1ccc(F)cc1 [Haloperidol]	Å²	195.1
CCN1CCC2(CC1)COc1cc3c(cc12)N(C(=O)c1ccc(-c2ccc(-c4nnc(C)o4)cc2C)cc1)CC3	Å²	229.1
Oc1cccc(O)n1 [6-Hydroxy-2-oxopyridinium chloride]	Å²	120.2
CN1C(=CC=O)C(C)(C)c2ccccc21 [1,3-Dihydro-1,3,3-trimethyl-2H-indol-2-ylidene acetaldehyde]	Å²	145.1
c1ccc(Nc2ccc3ccccc3c2)cc1 [N-Phenyl-2-naphthylamine]	Å²	151.3
CCN(CC)c1ccc2c(C)cc(=O)oc2c1 [7-Diethylamino-4-methylcoumarin]	Å²	152.6
CCCCCc1ccc(N)cc1 [4-Pentylaniline]	Å²	156.5
CCNC(=O)C1CC(C)CCC1C(C)C (configuration not stated) [N-Ethyl-2-(isopropyl)-5-methylcyclohexanecarboxamide]	Å²	152.7
CCOP(=S)(OCC)Oc1nc(Cl)n(C(C)C)n1 [Isazofos]	Å²	166.9
